biological target: T1, HLA-A*0301 (human); assay: inhibition of 125I-labelled probe peptide binding to purified HLA-A*0301, gel filtration; ratio to standard peptide 941.12 [..] (11 nM)
T1 construct: also called HLA-A3
parameter: relative binding ratio (IC50 of standard peptide / IC50 of test peptide)
One number for each entry.

| binder | recordedValue |
| --- | --- |
| LIQRNPQLCY (Synthetic peptide; also called Her2/neu.154 (10-mer)) [HER2/neu peptide, position 154, 10 amino acids] | 0.0012 |
| LIKRRQQKIR (Synthetic peptide; also called Her2/neu.674 (10-mer)) [HER2/neu peptide, position 674, 10 amino acids] | 0.0002 |
| NIQEFAGCKK (Synthetic peptide; also called Her2/neu.360 (10-mer)) [HER2/neu peptide, position 360, 10 amino acids] | 0.0003 |
| LLNWCMQIAK (Synthetic peptide) [HER2/neu peptide, position 822, 10 amino acids] | 0.14 |
| NIQEFAGCK (Synthetic peptide; also called Her2/neu.360 (9-mer)) [HER2/neu peptide, position 360, 9 amino acids] | 0.0002 |

Count: 4. Required value per item: relative binding ratio (IC50 of standard peptide / IC50 of test peptide).
1. MALESILRRR (Synthetic peptide) [HER2/neu peptide, position 889, 10 amino acids]
2. MIDSECRPR (Synthetic peptide; also called Her2/neu.960 (9-mer)) [HER2/neu peptide, position 960, 9 amino acids]
3. MGDLVDAEEY (Synthetic peptide; also called Her2/neu.1014 (10-mer)) [HER2/neu peptide, position 1014, 10 amino acids]
4. LMTFGAKPY (Synthetic peptide; also called Her2/neu.915 (9-mer)) [HER2/neu peptide, position 915, 9 amino acids]

[0.0011, 0.0017, 0.0002, 0.0002]
